The values you see were collected from ChEMBL document CHEMBL1961873.

Target Under Test: Insulin-like growth factor 1 receptor (Homo sapiens) (UniProt P08069);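 further: values are mean percent inhibition of IGF1R kinase activity, from the GSK published kinase inhibitor set (PKIS) screening panel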
Sequence (P08069 31-736 limits assumed): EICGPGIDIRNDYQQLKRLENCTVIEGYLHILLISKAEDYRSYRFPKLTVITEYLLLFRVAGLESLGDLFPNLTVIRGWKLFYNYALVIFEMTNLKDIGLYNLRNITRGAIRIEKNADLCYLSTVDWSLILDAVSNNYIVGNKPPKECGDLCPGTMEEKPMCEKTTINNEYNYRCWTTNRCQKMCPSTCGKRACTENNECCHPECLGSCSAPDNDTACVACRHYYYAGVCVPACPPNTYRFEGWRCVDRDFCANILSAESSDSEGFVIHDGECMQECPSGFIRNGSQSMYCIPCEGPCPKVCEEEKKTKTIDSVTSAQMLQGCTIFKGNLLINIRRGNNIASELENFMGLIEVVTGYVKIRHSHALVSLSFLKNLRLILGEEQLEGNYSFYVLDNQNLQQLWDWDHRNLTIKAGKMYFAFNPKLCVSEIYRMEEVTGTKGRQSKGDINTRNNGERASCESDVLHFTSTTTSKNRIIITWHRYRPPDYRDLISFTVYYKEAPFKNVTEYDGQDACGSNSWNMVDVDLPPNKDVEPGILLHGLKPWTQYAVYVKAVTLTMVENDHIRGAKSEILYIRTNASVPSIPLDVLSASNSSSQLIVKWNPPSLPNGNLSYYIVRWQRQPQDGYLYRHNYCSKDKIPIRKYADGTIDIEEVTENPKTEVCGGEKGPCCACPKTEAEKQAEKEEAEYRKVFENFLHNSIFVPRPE
Sequence (P08069 741-1367 limits assumed): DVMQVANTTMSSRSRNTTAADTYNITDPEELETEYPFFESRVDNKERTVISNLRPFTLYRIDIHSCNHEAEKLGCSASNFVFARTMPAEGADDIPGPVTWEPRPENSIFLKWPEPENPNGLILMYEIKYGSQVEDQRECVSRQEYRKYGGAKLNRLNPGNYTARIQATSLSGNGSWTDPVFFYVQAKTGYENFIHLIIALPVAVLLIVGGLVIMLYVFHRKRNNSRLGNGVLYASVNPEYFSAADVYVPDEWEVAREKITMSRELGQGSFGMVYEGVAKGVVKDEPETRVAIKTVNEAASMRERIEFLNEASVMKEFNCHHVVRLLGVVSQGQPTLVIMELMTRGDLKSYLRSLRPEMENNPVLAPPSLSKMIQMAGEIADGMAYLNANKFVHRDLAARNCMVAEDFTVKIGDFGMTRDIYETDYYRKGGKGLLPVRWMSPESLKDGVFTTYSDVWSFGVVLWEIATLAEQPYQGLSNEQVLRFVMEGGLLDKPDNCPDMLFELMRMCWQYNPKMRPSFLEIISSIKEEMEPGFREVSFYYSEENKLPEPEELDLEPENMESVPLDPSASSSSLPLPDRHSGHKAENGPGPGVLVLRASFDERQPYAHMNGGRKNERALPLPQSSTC
Reported Conditions: at 0.1 µM
Property Name: inhibition (%)
# unit: % | format: bare number

Use these answered entries as a reference point.
{"Smiles Notation": "COc1ccc(-c2coc3ncnc(N)c23)cc1", "Observed Result": 1.64}
{"Smiles Notation": "CN(C)c1cc2c(Nc3ccc4nc(Cc5ccccc5)[nH]c4c3)ncnc2cn1", "Observed Result": 6.59}
{"Smiles Notation": "Cc1ccc(NC(=O)c2ccnc(N3CCCC3)c2)cc1-c1ccc(C(=O)NCC2CC2)cc1", "Observed Result": -4.41}
{"Smiles Notation": "COc1cc2ncn(-c3cc(OCc4ccccc4Cl)c(C(N)=O)s3)c2cc1OC", "Observed Result": 2.22}

Name the recorded inhibition for "NS(=O)(=O)c1ccc(N/N=C2\C(=O)Nc3ccc(C(=O)NCCc4c[nH]cn4)cc32)cc1" .
5.24
